pIC50 listing for selected compounds.
# Procedure text: in vitro
# Run parameters: human
pIC50: −log10 of the molar value.
Property measured: pIC50

[[record]]
compound = "CO[C@H](C)[C@H](NC(=O)c1ccc(O[C@H]2O[C@@H]3O[C@@]4(C)CC[C@H]5[C@H](C)CC[C@@H]([C@H]2C)[C@@]35OO4)cc1)C(=O)O"
property_measured = "pIC50"
value_observed = "< 4.70"

[[record]]
compound = "C[C@H]1[C@@H](O[C@H]2C[C@@H](C(=O)NC34C5C6C3C3C4C5C63C(=O)O)C2)O[C@@H]2O[C@@]3(C)CC[C@H]4[C@H](C)CC[C@@H]1[C@@]24OO3 (stereo partly drawn)"
property_measured = "pIC50"
value_observed = "< 4.70"

[[record]]
compound = "C[C@H]1[C@@H](Oc2ccc(C(=O)N3[C@H](C(=O)O)C[C@@H]4C[C@@H]43)cc2)O[C@@H]2O[C@@]3(C)CC[C@H]4[C@H](C)CC[C@@H]1[C@@]24OO3"
property_measured = "pIC50"
value_observed = "< 4.70"


====

# Procedure text: in vitro
# Run parameters: human
pIC50: −log10 of the molar value.
pIC50 listing for selected compounds.
Property measured: pIC50

[[record]]
compound = "C[C@H]1[C@@H](OC/C=C/[C@@H]2CCC[C@H](C(=O)O)C2)O[C@@H]2O[C@@]3(C)CC[C@H]4[C@H](C)CC[C@@H]1[C@@]24OO3 [Compound 269]"
property_measured = "pIC50"
value_observed = 5.13

[[record]]
compound = "C[C@H]1[C@@H](OCc2ccc(C(=O)N[C@@H]3CCC[C@@H](C(=O)O)C3)cc2)O[C@@H]2O[C@@]3(C)CC[C@H]4[C@H](C)CC[C@@H]1[C@@]24OO3 [Compound 290]"
property_measured = "pIC50"
value_observed = 4.95

[[record]]
compound = "C[C@H]1[C@@H](Oc2ccc(COCC(=O)O)cc2)O[C@@H]2O[C@@]3(C)CC[C@H]4[C@H](C)CC[C@@H]1[C@@]24OO3 [Compound 219]"
property_measured = "pIC50"
value_observed = 4.88


====

# System: HL-60
# Procedure text: HL-60 differentiation potency
# Format: cell-based
# Run parameters: Homo sapiens
pEC50: −log10 of the molar value.
Property measured: pEC50

[[record]]
molecule = "C[C@H]1[C@@H](OC[C@H]2CC[C@@H](C(=O)Nc3ccc(C(=O)O)cc3)CC2)O[C@@H]2O[C@@]3(C)CC[C@H]4[C@H](C)CC[C@@H]1[C@@]24OO3"
target_entity = "HL-60"
value_observed = 7.22

[[record]]
molecule = "C[C@H]1[C@@H](Oc2ccc(CC(=O)N[C@H]3CC[C@@H](C(=O)O)C3)cc2)O[C@@H]2O[C@@]3(C)CC[C@H]4[C@H](C)CC[C@@H]1[C@@]24OO3"
target_entity = "HL-60"
value_observed = 7.66

[[record]]
molecule = "CC(C)[C@H](NC(=O)Cc1ccc(O[C@H]2O[C@@H]3O[C@@]4(C)CC[C@H]5[C@H](C)CC[C@@H]([C@H]2C)[C@@]35OO4)cc1)C(=O)O"
target_entity = "HL-60"
value_observed = 7.79

[[record]]
molecule = "CC(C(=O)N[C@H]1CC[C@@H](C(=O)O)C1)c1ccc(O[C@H]2O[C@@H]3O[C@@]4(C)CC[C@H]5[C@H](C)CC[C@@H]([C@H]2C)[C@@]35OO4)c(F)c1 (stereo partly shown)"
target_entity = "HL-60"
value_observed = 7.88


These data points were gathered from patent US20260242391A1.
